From: patent US20260234157A1

Field: inhibition at 0.1 µM. Provide a value for each of the compounds that follow.
Target of assay: AR protein (Homo sapiens, UniProt P10275)
Construct: degradation activity of the compounds disclosed in the present disclosure on AR protein in VCaP cells; host or cells: VCaP
Sequence (P10275 1-920): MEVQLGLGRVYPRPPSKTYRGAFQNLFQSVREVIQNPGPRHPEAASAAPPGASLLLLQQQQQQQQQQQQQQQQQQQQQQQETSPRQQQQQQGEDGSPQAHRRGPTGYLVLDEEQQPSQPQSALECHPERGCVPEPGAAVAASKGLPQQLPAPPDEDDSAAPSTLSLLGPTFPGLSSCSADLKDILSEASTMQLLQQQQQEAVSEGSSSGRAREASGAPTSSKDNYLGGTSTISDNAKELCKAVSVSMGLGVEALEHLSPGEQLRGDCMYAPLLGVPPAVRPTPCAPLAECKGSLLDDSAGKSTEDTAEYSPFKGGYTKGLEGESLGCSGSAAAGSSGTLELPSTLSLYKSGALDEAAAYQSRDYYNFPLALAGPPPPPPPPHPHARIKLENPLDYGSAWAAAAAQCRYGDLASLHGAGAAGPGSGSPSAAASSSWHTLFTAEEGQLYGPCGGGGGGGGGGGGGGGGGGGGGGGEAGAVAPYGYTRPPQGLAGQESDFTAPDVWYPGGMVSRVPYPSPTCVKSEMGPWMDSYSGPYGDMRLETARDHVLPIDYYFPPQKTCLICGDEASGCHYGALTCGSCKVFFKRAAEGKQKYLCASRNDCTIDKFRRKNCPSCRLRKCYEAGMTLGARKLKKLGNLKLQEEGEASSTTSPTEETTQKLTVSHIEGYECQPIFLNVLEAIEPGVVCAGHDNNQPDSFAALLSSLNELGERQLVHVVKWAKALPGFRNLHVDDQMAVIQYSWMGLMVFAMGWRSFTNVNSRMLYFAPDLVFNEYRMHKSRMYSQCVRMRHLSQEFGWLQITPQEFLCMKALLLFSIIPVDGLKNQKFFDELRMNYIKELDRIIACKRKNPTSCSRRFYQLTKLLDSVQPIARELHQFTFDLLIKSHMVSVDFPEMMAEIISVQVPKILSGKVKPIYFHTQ
Assay overview: Degradation of AR protein in VCaP cells (Western blot)
Type: cell-based
Test context: compound at 100 nM, 8 hours, read-out: Degradation rate of the AR protein in VCaP cells, 100 nM (%)
Numbers only, in %.

State the recorded inhibition at 0.1 µM for every item in the following list.
1. N#Cc1ccc(O[C@H]2CC[C@H](NC(=O)c3ccc(N4CCC(N5CCC(N6CCC7(CC6)COc6c7ccc7c6CN(C6CCC(=O)NC6=O)C7=O)CC5)CC4)nn3)CC2)cc1Cl (stereo partly shown) [Compound 173]
2. N#Cc1ccc(O[C@H]2CC[C@H](NC(=O)c3ccc(N4CCC5(CCC(N6CCC7(CC6)COc6ccc8c(c6C7)C(=O)N(C6CCC(=O)NC6=O)C8)CC5)CC4)nn3)CC2)cc1Cl (stereo partly shown) [Compound 149]
3. COc1cc(OC2CCC(NC(=O)c3cnc(N4CCC(C)(CN5CCC6(CC5)COc5c6ccc6c5CN(C5CCC(=O)NC5=O)C6=O)CC4)nc3)CC2)ccc1C#N (stereo not shown) [Compound 247]
4. N#Cc1ccc(O[C@H]2CC[C@H](NC(=O)c3cnc(N4CCC(F)(CN5CCC6(CC5)COc5c6ccc6c5CN(C5CCC(=O)NC5=O)C6=O)CC4)cn3)CC2)cc1Cl (stereo partly shown) [Compound 157]
5. COc1cc(O[C@H]2C(C)(C)[C@H](NC(=O)c3ccc(N4CCC(F)(CN5CCC6(CC5)COc5cc7c(cc5O6)CN(C5CCC(=O)NC5=O)C7=O)CC4)cc3)C2(C)C)ccc1C#N (stereo partly shown) [Compound 284]

A)
86
26
70
84
73
